Reported IC50 values for the following compounds.
Molecular target: CYP3A4 (Homo sapiens, UniProt P08684)
Construct: The test compounds were co-incubated with the human liver microsomes and a probe substrate midazolam (CYP3A4); tissue Corning (USA); host or cells: mixed (pooled) human liver microsomes
Sequence (P08684 whole entry): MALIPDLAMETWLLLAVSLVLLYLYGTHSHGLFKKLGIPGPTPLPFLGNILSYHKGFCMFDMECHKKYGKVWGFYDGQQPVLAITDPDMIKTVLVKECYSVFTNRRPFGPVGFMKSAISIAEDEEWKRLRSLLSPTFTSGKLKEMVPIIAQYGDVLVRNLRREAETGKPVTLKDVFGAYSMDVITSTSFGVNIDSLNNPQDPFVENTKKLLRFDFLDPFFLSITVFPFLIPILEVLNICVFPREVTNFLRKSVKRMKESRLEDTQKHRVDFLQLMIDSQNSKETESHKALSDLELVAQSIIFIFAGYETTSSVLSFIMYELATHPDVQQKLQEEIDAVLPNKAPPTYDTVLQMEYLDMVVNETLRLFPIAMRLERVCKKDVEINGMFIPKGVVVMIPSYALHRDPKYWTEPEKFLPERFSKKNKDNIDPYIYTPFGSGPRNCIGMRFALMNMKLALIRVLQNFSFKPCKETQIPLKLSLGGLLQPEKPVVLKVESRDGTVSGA
Assay: CYP450 inhibition in human liver microsomes, CYP3A4-M
Type: in vitro ADME
Conditions: pooled (mixed) human liver microsomes, probe midazolam; human liver microsomes, midazolam; read-out: CYP3A4 IC50

COc1cc2nn(CCC(C)(C)O)cc2cc1NC(=O)c1cccc(C)[n+]1[O-] :: > 30 µM

Field: next compound
Need IC50 of COc1cc2nn([C@H]3CC[C@](C)(O)CC3)cc2cc1NC(=O)c1cccc(C)[n+]1[O-] , thanks.
> 30 µM

----------
Target: CYP2D6 (Homo sapiens, UniProt P10635)
Construct: co-incubated at 7 concentrations with human liver microsomes and five probe substrates; tissue Corning (USA); host or cells: mixed (pooled) human liver microsomes
Sequence (P10635 whole entry): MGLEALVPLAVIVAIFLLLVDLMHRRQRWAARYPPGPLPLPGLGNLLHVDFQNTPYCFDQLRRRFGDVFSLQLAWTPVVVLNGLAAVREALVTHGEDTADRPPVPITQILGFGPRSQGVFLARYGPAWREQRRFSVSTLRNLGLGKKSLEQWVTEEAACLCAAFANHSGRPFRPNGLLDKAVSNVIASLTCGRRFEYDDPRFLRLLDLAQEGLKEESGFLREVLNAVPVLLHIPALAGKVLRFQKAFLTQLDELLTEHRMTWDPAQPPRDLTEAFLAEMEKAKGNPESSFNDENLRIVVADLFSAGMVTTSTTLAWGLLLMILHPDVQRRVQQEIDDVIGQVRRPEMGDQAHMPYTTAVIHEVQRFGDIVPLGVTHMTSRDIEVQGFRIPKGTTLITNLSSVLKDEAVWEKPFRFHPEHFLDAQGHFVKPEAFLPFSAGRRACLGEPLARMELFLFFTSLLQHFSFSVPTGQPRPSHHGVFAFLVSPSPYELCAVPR
Test: CYP450 inhibition in human liver microsomes, CYP2D6
Assay type: in vitro ADME
Settings: pooled (mixed) human liver microsomes, probe dextromethorphan; human liver microsomes, dextromethorphan; read-out: CYP2D6 IC50
MEASURED METRIC: IC50

COc1cc2nn([C@H]3CC[C@](C)(O)CC3)cc2cc1NC(=O)c1cccc(C)[n+]1[O-] :: > 30 µM

Field: next compound
Need IC50 of COc1cc2nn(CCC(C)(C)O)cc2cc1NC(=O)c1cccc(C)[n+]1[O-] , thanks.
> 30 µM

----------
Target: CYP1A2 (Homo sapiens)
Construct: co-incubated at 7 concentrations with human liver microsomes and five probe substrates; tissue Corning (USA); host or cells: mixed (pooled) human liver microsomes
Sequence (P05177 1-516): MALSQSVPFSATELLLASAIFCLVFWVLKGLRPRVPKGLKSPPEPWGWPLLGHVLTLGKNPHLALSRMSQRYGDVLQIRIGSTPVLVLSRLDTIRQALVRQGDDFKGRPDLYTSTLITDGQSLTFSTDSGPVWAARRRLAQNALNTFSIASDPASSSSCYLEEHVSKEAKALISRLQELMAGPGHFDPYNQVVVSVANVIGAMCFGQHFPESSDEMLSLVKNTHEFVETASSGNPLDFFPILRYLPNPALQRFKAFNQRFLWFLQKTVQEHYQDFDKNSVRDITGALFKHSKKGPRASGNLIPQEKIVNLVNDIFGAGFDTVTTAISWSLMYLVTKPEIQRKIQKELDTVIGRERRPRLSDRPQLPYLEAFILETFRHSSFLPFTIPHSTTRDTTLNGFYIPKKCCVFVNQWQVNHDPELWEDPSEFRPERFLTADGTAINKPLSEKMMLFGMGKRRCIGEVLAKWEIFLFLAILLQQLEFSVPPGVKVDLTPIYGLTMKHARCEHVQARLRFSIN
Experiment: CYP450 inhibition in human liver microsomes, CYP1A2
Type: in vitro ADME
Details: pooled (mixed) human liver microsomes, probe phenacetin
pIC50: −log10 of the molar value.
MEASURED METRIC: pIC50

COc1cc2nn([C@H]3CC[C@](C)(O)CC3)cc2cc1NC(=O)c1cccc(C)[n+]1[O-] [Compound 001] :: < 4.52

Field: next molecule
Need pIC50 of COc1cc2nn(CCC(C)(C)O)cc2cc1NC(=O)c1cccc(C)[n+]1[O-] [Compound 163] , thanks.
< 4.52
